assay_details: 7-day mouse toxicology study: toxicokinetics (plasma, brain, CSF), 30 mg/kg/day PO
Assay type: in vivo, male C57BL/6 mice
study_conditions: male, C57BL/6, mouse, plasma, po, 30 mg/kg, plasma, D 1-30 mg/kg, PO; read-out: AUClast (p)
readout_type: AUC(0-t) (µg·h/mL)
Only the number, expressed in µg·h/mL, is required.

Please report the recorded AUC(0-t) for Cc1cccnc1[C@@H]1CCC[C@H](c2nc3cccc(N4CCN(C)CC4)c3[nH]2)N1C (racemic) [I-3] .
2.37

###

assay_details: Rat brain uptake assay: pharmacokinetics and brain penetration after IV-PO administration
Assay type: in vivo, male SD rats
study_conditions: male, SD; brain; Rat (3 mg/kg IV; 10 mg/kg, PO); read-out: AUClast (b)
readout_type: AUC(0-t) (ng·h/mL)
Enter your answer as a number in ng·h/mL; do not include the unit.

>>> print(df.to_string())
                                   molecule  readout_type  unit_text  readout_number
0  Cc1cccnc1[C@@H]1CCC[C@H](c2nc3cccc(N4CCN(C)CC4)c3[nH]2)N1C (racemic)      AUC(0-t)    ng·h/mL            1520

Could you now consider this next molecule?
Can you look up the measured AUC(0-t) of CN1CCN(c2cccc3nc([C@H]4CCC[C@@H](c5ncccc5Cl)N4)[nH]c23)CC1 (racemic) for me?
6650

###

assay_details: 7-day mouse toxicology study: toxicokinetics (plasma, brain, CSF), 30 mg/kg/day PO
Type: in vivo, male C57BL/6 mice
study_conditions: male, C57BL/6, mouse, plasma, po, 30 mg/kg, Day 1, Plasma, 30 mg/kg PO
readout_type: Cmax (ng/mL)
Kindly provide the numeric value in ng/mL only, without the unit symbol.

I am curious: what Cmax value has been reported for Cc1cccnc1[C@@H]1CCC[C@H](c2nc3cccc(N4CCN(C)CC4)c3[nH]2)N1C (racemic) [I-3] ?
968

###

Catalogue of compounds with associated pIC50
study_target: CXCR-4 transfected U87 cell line (U87.CXCR4) (Homo sapiens)
Construct: expressed in transfected cells; host or cells: U87 (U87.CXCR4)
Sequence (P61073 whole entry): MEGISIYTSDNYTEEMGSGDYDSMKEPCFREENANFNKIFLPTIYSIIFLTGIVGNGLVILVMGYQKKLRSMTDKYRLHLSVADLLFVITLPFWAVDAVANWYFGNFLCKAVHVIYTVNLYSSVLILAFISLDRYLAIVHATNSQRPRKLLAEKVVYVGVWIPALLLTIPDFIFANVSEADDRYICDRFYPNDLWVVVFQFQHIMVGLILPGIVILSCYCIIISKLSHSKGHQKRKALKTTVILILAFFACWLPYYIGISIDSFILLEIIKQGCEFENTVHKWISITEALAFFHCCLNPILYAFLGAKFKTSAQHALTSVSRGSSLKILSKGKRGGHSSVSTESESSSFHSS
assay_details: Intracellular CXCL-12-induced calcium mobilization assay (FLIPR)
Type: cell-based
study_conditions: U87.CXCR4 cells; CXCL-12 25-50 ng/mL; compound added 15 min before; read-out: IC50 CXCL-12 Ca^2+ flux U87.CXCR4+
Description: Example 36: REGA Screening Assay Intracellular CXCL-12-Induced Calcium Mobilization Assay Intracellular calcium mobilization induced by chemokines or chemokine-derived peptides were evaluated using a calcium responsive fluorescent probe and a FLIPR system. The CXCR-4 transfected U87 cell line (U87.CXCR4) cells were seeded in gelatine-coated black-wall 96-well plates at 20,000 cells per well and incubated for 12 hours. […]
pIC50: −log10 of the molar value.

>>> print(df.to_string())
                              sample_smiles  result
0  Cc1cccnc1[C@@H]1CCC[C@H](c2nc3ccccc3n2Cc2ccccc2-n2cccn2)N1  ≤ 6.00

Using the record for [2H]C([2H])([2H])N1[C@@H](c2nc3cccc(N4CCN(C)CC4)c3[nH]2)CCC[C@H]1c1ncccc1C , report its pIC50.
7.00 to 11.00

So what's the measured pIC50 for this one? CCN1CCN(c2cccc3nc([C@H]4CCC[C@@H](c5ncccc5C)N4C)[nH]c23)CC1
7.00 to 11.00

Give its pIC50 value. Item: Cc1cccnc1[C@@H]1CCC[C@H](c2nccn2CCc2ccccn2)N1
≤ 6.00

###

Collected Kp values appear next to each entry.
assay_details: Mouse brain uptake assay (MBUA), 3 mg/kg IV, 0-24 h, 4 time points
Type: in vivo, male CD1 mice
study_conditions: male, CD1, mouse, brain/plasma, iv, 3 mg/kg
Experimental: Example 38: Pharmacokinetics and Brain Penetration Experiment to Determine Brain and Plasma Concentrations of Compounds after IV Administration to Male CD1 Mice The study design (9 animals) consisted of administrating the drug (IV: 3 mg/kg (5 mL/kg) via tail vein injection) and collecting samples at terminal bleeding for plasma and brain at 0.083, 0.5 and 1 h. The IV dosing solution was prepared in 50 mM citrate buffer (pH 4.0) at 0.6 mg/mL. […]
A bare number is all that is needed in reply.

Check out these entries, answers already filled in.
>>> print(df.to_string())
                                   molecule  readout_number
0  COc1ccnc([C@@H]2CCC[C@H](c3nc4cccc(N5CCN(C)CC5)c4[nH]3)N2C)c1C [I-81]            7.96
1  Cc1cccnc1[C@@H]1CCC[C@H](c2nc3cccc(N4CCN(C)C5(CC5)C4)c3[nH]2)N1C [I-108]            55.8
2  CO[C@H]1C[C@H](c2nc3cccc(N4CCN(C)CC4)c3[nH]2)N(C)[C@H](c2ncccc2C)C1 [I-103]             7.3
3  Cc1c(Cl)ccnc1[C@@H]1CCC[C@H](c2nc3cccc(N4CCN(C)CC4)c3[nH]2)N1C [I-82]            4.27
4  Cc1cccnc1[C@@H]1CCC[C@H](c2nc3cccc(N4C5CCC4CN(C)C5)c3[nH]2)N1 [I-120]            1.05
5  CN1[C@@H](c2nc3cccc(N4CCN5CCCC5C4)c3[nH]2)CCC[C@H]1c1ncccc1Cl (some centres unmarked) [I-96]            31.2
6  Cc1cccnc1[C@@H]1CCC[C@H](c2nc3cccc(N4CC5CCC(C4)N5C)c3[nH]2)N1C [I-56]            1.94

Recorded Kp for CN1CCC(n2ccnc2[C@H]2CCC[C@@H](c3ncccc3Cl)N2C)CC1 [I-170] , please?
7.23

###

assay_details: in vitro
study_conditions: human, Caco-2, pH 7.4
readout_type: Papp A→B at 90 min, 10 μM

Examples from the recorded data:
In [3]: df
Out[3]:
                                   molecule               readout_type               result
0  CN1CCN(c2cccc3nc([C@H]4CCC[C@@H](c5ncccc5C(F)(F)F)N4C)[nH]c23)CC1 (relative stereo)  Papp A→B at 90 min, 10 μM  10 to 30 ×10⁻⁶ cm/s
1  Cc1cccnc1[C@@H]1CCC[C@H](c2nc3ccccc3n2CC2CCN(CC(F)(F)F)CC2)N1C  Papp A→B at 90 min, 10 μM  10 to 30 ×10⁻⁶ cm/s

Consider the molecule shown here: Cc1cccnc1[C@@H]1CCC[C@H](c2nc3c(N4CCN(C)CC4)cccc3n2C)N1 What is its recorded Papp A→B at 90 min, 10 μM?
10 to 30 ×10⁻⁶ cm/s

Recorded Papp A→B at 90 min, 10 μM of Cc1cccnc1[C@@H]1CCC[C@H](c2nc3ccccc3n2CCC#N)N1 , please.
10 to 30 ×10⁻⁶ cm/s

###

assay_details: 7-day mouse toxicology study: toxicokinetics (plasma, brain, CSF), 30 mg/kg/day PO
Type: in vivo, male C57BL/6 mice
study_conditions: male, C57BL/6, mouse, brain, po, 30 mg/kg, Day 7, Brain, 30 mg/kg PO; read-out: AUClast
readout_type: AUC(0-t) (ng·h/mL)
The response must be a number in ng·h/mL with no trailing unit.

Look at this compound and give its reported AUC(0-t). Cc1cccnc1[C@@H]1CCC[C@H](c2nc3cccc(N4CCN(C)CC4)c3[nH]2)N1C (racemic)
10900

###

assay_details: 7-day mouse toxicology study: toxicokinetics (plasma, brain, CSF), 30 mg/kg/day PO
Format: in vivo, male C57BL/6 mice
study_conditions: male, C57BL/6, mouse, plasma, po, 30 mg/kg/day, 7 days Mouse TOX, D 7-30 mg/kg, PO; read-out: t½ (converted)
readout_type: half-life (h)
Express your answer in h, writing the number without its unit.

Any idea what its half-life is? The compound is Cc1cccnc1[C@@H]1CCC[C@H](c2nc3cccc(N4CCN(C)CC4)c3[nH]2)N1C (racemic)
3.13

###

assay_details: MTD, pharmacokinetics and brain penetration after PO administration
Format: in vivo, male C57BL/6 mice
study_conditions: male, C57BL/6, mouse, brain, multiple administration, D 5-300 mg/kg, read-out: AUClast (b)
readout_type: AUC(0-t) (µg·h/mL)
Field format: number, assumed µg·h/mL, no unit text.

Tell me the measured AUC(0-t) of Cc1cccnc1[C@@H]1CCC[C@H](c2nc3cccc(N4CCN(C)CC4)c3[nH]2)N1C (racemic) [I-3] , please.
384

###

assay_details: in vitro
study_conditions: human, Caco-2, pH 7.4
Recorded Papp A→B at 90 min, 10 μM for the following compounds

>>> df
                                   compound                result
0  CN1CCC(c2cccc3nc([C@H]4CCC[C@@H](c5ncccc5Cl)N4)[nH]c23)CC1  0.1 to 10 ×10⁻⁶ cm/s
1  Cc1cccnc1[C@@H]1CCC[C@H](c2nc3cccc(N4C[C@@H](C)N[C@@H](C)C4)c3[nH]2)N1C  0.1 to 10 ×10⁻⁶ cm/s
2  Cc1cccnc1[C@@H]1CCC[C@H](c2nc3cccc(N4CCN(C5CC5)CC4)c3[nH]2)N1C       > 30 ×10⁻⁶ cm/s
3  Cc1cccnc1[C@@H]1CCC[C@H](c2nc3cccc(N4CCN(C)CC4)c3[nH]2)N1  0.1 to 10 ×10⁻⁶ cm/s
4  Cc1cccnc1[C@@H]1CCC[C@H](c2nc3cccc(OC4CCN(C)CC4)c3[nH]2)N1C  0.1 to 10 ×10⁻⁶ cm/s

Switching to the query record.
Recorded Papp A→B at 90 min, 10 μM for Cc1cccnc1[C@@H]1CCC[C@H](c2nc3cccc(N4C5CCC4CNC5)c3[nH]2)N1C , please?
0.1 to 10 ×10⁻⁶ cm/s
